Details: in ethylbenzene, 308.33 K
parameter: solubility (mole fraction)

[[record]]
sample_smiles = "CP(=O)(c1ccccc1)c1ccccc1"
assay_value = 0.0393


---

Settings: in m-xylene, 303.32 K
parameter: solubility (mole fraction)

[[record]]
sample_smiles = "CP(=O)(c1ccccc1)c1ccccc1"
parameter = "solubility (mole fraction)"
assay_value = 0.0216


---

Conditions: in toluene, 298.16 K
parameter: solubility (mole fraction)

[[record]]
sample_smiles = "CP(=O)(c1ccccc1)c1ccccc1"
assay_value = 0.0287


---

Conditions: in m-xylene, 307.41 K
parameter: solubility (mole fraction)

[[record]]
sample_smiles = "CP(=O)(c1ccccc1)c1ccccc1"
parameter = "solubility (mole fraction)"
assay_value = 0.0258

